# target.under.test: T1, EsCas13d, nuclease-dead (Eubacterium siraeum, UniProt B0MS50, R295A;H300A;R849A;H854A)
# T1 sequence: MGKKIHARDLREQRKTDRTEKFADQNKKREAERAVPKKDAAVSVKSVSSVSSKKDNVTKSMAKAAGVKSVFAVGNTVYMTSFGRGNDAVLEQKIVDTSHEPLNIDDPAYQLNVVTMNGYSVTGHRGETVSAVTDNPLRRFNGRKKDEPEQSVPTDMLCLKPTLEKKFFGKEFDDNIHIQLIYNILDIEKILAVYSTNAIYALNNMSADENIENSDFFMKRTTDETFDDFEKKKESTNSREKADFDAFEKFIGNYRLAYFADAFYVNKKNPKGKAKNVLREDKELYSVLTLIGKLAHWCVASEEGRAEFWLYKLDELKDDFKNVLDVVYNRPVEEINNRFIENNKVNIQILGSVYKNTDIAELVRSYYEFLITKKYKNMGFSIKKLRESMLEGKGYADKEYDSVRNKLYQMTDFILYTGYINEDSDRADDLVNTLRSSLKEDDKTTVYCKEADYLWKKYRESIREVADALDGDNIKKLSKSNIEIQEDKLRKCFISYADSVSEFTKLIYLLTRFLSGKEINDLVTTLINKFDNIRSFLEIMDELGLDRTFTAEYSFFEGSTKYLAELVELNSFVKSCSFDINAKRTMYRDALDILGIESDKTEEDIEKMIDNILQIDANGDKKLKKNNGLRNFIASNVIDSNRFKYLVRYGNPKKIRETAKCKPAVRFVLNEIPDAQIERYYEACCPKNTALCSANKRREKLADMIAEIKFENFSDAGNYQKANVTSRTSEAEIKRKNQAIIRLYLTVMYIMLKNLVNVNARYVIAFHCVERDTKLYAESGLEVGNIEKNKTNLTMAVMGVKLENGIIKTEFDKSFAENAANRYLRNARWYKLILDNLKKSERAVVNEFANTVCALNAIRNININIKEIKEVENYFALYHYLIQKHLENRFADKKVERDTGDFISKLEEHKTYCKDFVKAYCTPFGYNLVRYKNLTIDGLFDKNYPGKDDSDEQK
# protocol.text: crRNA (strand 1, pre-loaded); Mg2+; 40 mM Tris-HCl pH 7.5, 150 mM NaCl, 6 mM MgCl2, 1 mM DTT, 0.1% Tween-20, 0.2 mg/ml BSA; 25 C; 10 min per concentration, then washed
# condition.notes: tags: His6-TwinStrep-SUMO cleaved; N-terminal SNAP kept (SNAP-Surface 488); label: 3' end held by stalled T7 RNA polymerase
metric.name: Kd (nM)
Respond numerically; units are nM and should not be typed.

Request: What Kd value was documented for this binder, target 2 MT 5'PFS GGC 3'PFS CUG (mixed) RNA 1: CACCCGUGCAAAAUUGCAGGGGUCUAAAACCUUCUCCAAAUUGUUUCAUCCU RNA 2: GGGAAUGGAUCCACAUCUACGAAUUCGGCAGGAUGAAACAAUUUGGAGAAGCUGAGAUCGGAAGAGCACACGU ?
Response: 12.9
